- tested-target: T1, corticotropin-releasing hormone (CRH) peptide (human and mouse (same sequence), not fully specified)
- T1 peptide: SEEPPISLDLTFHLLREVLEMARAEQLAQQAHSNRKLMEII
- test-details: cell-based or functional assay
test-readout: hCRHR1 Luciferase Reporter Assay IC50 (nM)

binder="PR302341-34 (antibody, human IgG1, kappa, V domains shown) VH: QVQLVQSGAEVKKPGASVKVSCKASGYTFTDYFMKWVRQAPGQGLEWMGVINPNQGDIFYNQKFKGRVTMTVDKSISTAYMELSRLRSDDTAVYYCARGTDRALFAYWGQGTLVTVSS VL: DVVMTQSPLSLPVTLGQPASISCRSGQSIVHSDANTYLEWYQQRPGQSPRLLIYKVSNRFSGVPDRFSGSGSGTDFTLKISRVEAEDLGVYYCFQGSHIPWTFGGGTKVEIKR" test_readout="hCRHR1 Luciferase Reporter Assay IC50" recorded_value=0.616
binder="PR302341-31 (antibody, human IgG1, kappa, V domains shown) VH: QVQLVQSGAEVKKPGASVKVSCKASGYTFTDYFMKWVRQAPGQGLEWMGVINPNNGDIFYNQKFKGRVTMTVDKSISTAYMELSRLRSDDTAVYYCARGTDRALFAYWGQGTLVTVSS VL: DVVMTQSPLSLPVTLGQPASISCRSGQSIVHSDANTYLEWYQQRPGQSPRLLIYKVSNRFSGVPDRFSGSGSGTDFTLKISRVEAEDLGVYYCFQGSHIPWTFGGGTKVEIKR" test_readout="hCRHR1 Luciferase Reporter Assay IC50" recorded_value=0.498
binder="PR302341-70 (antibody, human IgG1, kappa, V domains shown) VH: QVQLVQSGAEVKKPGASVKVSCKASGYTFTDYFMKWVRQAPGQRLEWMGVINPNNGDIFYNQKFKGRVTITRDTSASTAYMELSSLRSEDTAVYYCARGTDRALFAYWGQGTLVTVSS VL: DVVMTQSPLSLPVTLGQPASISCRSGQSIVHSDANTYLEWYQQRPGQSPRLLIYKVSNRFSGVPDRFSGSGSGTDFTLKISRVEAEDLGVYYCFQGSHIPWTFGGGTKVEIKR" test_readout="hCRHR1 Luciferase Reporter Assay IC50" recorded_value=1.6
binder="PR302341-51 (antibody, human IgG1, kappa, V domains shown) VH: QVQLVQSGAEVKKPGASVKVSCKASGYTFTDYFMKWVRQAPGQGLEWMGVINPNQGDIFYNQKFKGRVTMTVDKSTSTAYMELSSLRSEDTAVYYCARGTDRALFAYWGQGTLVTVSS VL: DVVMTQTPLSSPVTLGQPASISCRSGQSIVHSEGNTYLEWYQQRPGQPPRLLIYKVSNRFSGVPDRFSGSGAGTDFTLKISRVEAEDLGVYYCFQGSHIPWTFGGGTKVEIKR" test_readout="hCRHR1 Luciferase Reporter Assay IC50" recorded_value=1.66
binder="PR302341-58 (antibody, human IgG1, kappa, V domains shown) VH: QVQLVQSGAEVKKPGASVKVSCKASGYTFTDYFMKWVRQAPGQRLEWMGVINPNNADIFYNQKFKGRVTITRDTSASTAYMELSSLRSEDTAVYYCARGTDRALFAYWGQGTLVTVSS VL: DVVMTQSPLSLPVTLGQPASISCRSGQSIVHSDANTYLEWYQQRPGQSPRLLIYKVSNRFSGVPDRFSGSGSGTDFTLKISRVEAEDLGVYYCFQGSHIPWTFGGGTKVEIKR" test_readout="hCRHR1 Luciferase Reporter Assay IC50" recorded_value=0.571
